B1: BTBD10 (parent)
chain: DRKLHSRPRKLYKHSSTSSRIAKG

variants of: B1; experiment: protein stability index of a GFP-peptide fusion (GPS, HEK-293T) (PSI 1-6); higher = more stable; conditions: c terminus: a fixed tail appended;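 further: lentivirally expressed fusions sorted by FACS into six bins by GFP to DsRed ratio, PSI derived from sequencing read proportions per bin multiplied by bin number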
metric_name: protein stability index
Reply: number alone, nothing else.

Ask: Requested read-out: protein stability index. Entry: "R20D"
Result: 4.28

Ask: Another: "R20G"
Result: 3.62

Ask: Now this one: "R9K"
Result: 4.17

Ask: Continue with "T17S"
Result: 3.86

Ask: Please do the same for "S16N" as well.
Result: 4.28

Ask: Same for "S18P"
Result: 3.93

Ask: Now consider "A22E" and answer again.
Result: 3.67

Ask: What about this variant? "R2P"
Result: 4.02

Ask: Would you mind doing "S16V" as well?
Result: 4.03

Ask: Next variant up: "A22L"
Result: 3.03

Ask: Please give the result for "H5D" too.
Result: 3.99

Ask: Now try "S18Y" .
Result: 2.88

Ask: "S6P" ?
Result: 4.42

Ask: Field entry: "L4G"
Result: 3.72

Ask: Same lookup for "Y12K" , please.
Result: 4.72

Ask: Similarly, "R7F" ?
Result: 2.59

Ask: Same read-out for "S15H" ?
Result: 3.25

Ask: Queued: "D1Y"
Result: 3.03

Ask: For "Y12G" then?
Result: 4.65

Ask: How about "R7S" ?
Result: 4.21

Ask: Field entry: "R9P"
Result: 3.69

Ask: Could you do the same for "I21M" , please?
Result: 3.77

Ask: Field entry: "H5W"
Result: 3.16

Ask: And what about the variant "S18F" ?
Result: 3.04

Ask: Queued: "R20V"
Result: 3.96

Ask: Same thing, different variant: "H14S"
Result: 3.66

Ask: What about "T17E" ?
Result: 4.41

Ask: Same thing, different variant: "R2H"
Result: 4.46

Ask: Also, "D1P" please.
Result: 3.42

Ask: Try the variant "R20H"
Result: 4.24

Ask: Next: "D1F"
Result: 2.9

Ask: Now try "T17Q" .
Result: 3.98

Ask: Input "I21E"
Result: 4.33

Ask: Try this variant next: "I21R"
Result: 3.95

Ask: And "D1I" ?
Result: 2.54

Ask: Cool, now "I21W"
Result: 3.33

Ask: And then "T17V" , what is it?
Result: 3.81

Ask: Follow-up entry: "S16I"
Result: 3.65

Ask: Now this one: "S18R"
Result: 3.63

Ask: Proceed to "S16P"
Result: 3.87

Ask: Entry "I21G" please
Result: 4.71

Ask: Moving on to "S16A"
Result: 4.32

Ask: Would you kindly repeat that for "K13P" ?
Result: 3.86

Ask: How about "R20Q" ?
Result: 4.2

Ask: Same read-out for "Y12R" ?
Result: 4.21

Ask: Next entry: "H14P"
Result: 3.54
